- system.name: MCL1 protein (Homo sapiens, UniProt Q07820)
- Construct: this assay uses full length endogenous MCL1 protein at mitochondria outer membrane; endogenous in cells; host or cells: RKO colon cancer cell line
- Sequence (Q07820 whole entry): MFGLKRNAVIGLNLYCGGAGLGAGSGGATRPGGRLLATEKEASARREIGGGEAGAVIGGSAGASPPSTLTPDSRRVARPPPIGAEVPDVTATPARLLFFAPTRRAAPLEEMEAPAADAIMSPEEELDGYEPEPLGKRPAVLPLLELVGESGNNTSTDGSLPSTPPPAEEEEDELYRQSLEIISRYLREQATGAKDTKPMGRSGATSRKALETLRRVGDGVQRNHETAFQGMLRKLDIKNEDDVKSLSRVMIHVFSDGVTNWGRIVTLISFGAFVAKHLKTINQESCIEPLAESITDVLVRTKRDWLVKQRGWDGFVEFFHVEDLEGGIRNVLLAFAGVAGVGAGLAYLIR
- protocol.description: PIxEL: protein-protein interaction in permeabilized cells by ELISA (Assay 5)
- Format: cell-based
- test.parameters: permeabilized RKO cells, biotin-BIM BH3 peptide 0.2 μM, serum free; median; read-out: PIxEL [M] (median)
- Experimental: PIxEL: Protein-Protein Interaction in Permeabilized Cells by ELISA Most MCL1 protein molecules are localized at the mitochondria outer membrane and sequester pro-apoptotic proteins through binding of their BCL2 homology domain 3 (BH3 domain). […] On the third day, ELISA plates were washed once with 250 μl 1×PBST. […] Plates were shaken for 1 minute then luminescence was measured by Envision plate reader (HP). […] IC50 was calculated using Graphic Pad PRISM software.
Record form. Attribute: IC50. Fill in for each entry.

Enquiry: Report IC50 for CCNCC.Cc1c2c(nn1C)COCc1ncccc1Cn1c(C(=O)O)c(CCCOc3cccc4ccccc34)c3ccc(Cl)c-2c31 (single isomer, unassigned; enantiomer 1) [Example 43]
Return: 2.97e-06 M

Enquiry: Indicate the recorded IC50 value for this compound: CCc1nn(C)c2c1-c1c(Cl)ccc3c(CCCOc4cccc5cc(F)ccc45)c(C(=O)O)n(c13)Cc1ccccc1COC2 (single isomer, unassigned; enantiomer 1) [Example 58]
Return: 8.34e-07 M

Enquiry: Specify measured IC50 for CCc1nn(CCN2CCOCC2)c2c1-c1c(Cl)ccc3c(CCCOc4cccc5cc(F)ccc45)c(C(=O)O)n(c13)Cc1ccccc1COC2 (single isomer, unassigned; enantiomer 1) [Example 52] .
Return: 3.68e-07 M
